- system tested: Protein-serine O-palmitoleoyltransferase porcupine (Homo sapiens)
- Sequence (Q9H237 whole entry): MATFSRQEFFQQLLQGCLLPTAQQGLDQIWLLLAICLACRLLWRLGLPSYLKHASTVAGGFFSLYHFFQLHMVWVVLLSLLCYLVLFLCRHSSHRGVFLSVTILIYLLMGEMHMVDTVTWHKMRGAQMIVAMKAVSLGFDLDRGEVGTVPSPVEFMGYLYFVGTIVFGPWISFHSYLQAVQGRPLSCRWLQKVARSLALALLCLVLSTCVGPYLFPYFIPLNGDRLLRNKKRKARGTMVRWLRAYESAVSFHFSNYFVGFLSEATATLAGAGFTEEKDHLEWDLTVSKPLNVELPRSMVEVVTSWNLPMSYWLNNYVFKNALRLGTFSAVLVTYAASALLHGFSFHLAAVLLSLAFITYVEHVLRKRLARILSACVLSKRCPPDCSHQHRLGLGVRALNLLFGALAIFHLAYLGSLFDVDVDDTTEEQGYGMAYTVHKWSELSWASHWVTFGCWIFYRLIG
- protocol summary: Inhibition of porcupine (unknown origin) expressed in HEK293-STF3A cells assessed as inhibition of Wnt signaling by measuring decrease in beta-catenin-mediated transcriptional activity after 24 hrs by Steady-Glo luciferase assay
Please provide measured pIC50 for the entries that follow.
Note on pIC50: it is the negative log10 of concentration, concentration in mol/L.

For `C[C@@H](Nc1ccc(-n2ccnc2)cc1)C(=O)Nc1ccc(-c2ccccc2)cn1` the compound record lists pIC50 as 6.16

For `C[C@H](Nc1ccc(-c2ccnn2C)nc1)C(=O)Nc1ccc(-c2ccccc2)cn1` the compound record lists pIC50 as 9.00

For `C[C@H](Oc1ccc(-n2ccnc2)cc1)C(=O)Nc1ccc(-c2ccccc2)cc1` the compound record lists pIC50 as 8.15

For `O=C(CNc1ccc(-n2ccnc2)cc1)Nc1ccc(-c2ccccc2)cc1` the compound record lists pIC50 as 7.52
